Molecular target: T1, recombinant BACE1 (BACE1 extracellular domain, R&D Systems Cat#931-AS) (UniProt P56817 22-457)
T1 construct: extracellular domain; also called BACE1 extracellular domain protein
T1 sequence (P56817 22-457): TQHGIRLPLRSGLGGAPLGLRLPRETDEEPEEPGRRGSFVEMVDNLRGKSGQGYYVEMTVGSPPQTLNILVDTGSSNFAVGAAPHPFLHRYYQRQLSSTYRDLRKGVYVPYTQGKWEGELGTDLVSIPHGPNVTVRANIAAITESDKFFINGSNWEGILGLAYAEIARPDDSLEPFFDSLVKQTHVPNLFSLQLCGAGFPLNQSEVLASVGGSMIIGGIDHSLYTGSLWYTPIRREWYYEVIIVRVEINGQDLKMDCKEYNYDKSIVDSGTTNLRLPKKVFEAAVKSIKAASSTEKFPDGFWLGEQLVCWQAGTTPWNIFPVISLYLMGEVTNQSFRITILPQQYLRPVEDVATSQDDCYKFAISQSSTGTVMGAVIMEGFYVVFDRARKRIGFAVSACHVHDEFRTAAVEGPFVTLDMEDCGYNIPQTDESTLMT
Assay: SPR Biacore
Outcome measure: pKd
Quick note: pKd means taking -log10 of the concentration in moles per liter.

# Binder, Outcome measure, Measurement
data = [
    ("hu2H8v26 (antibody, V domains shown, humanized; also called hu2H8_HC2 + hu2H8_LC5) VH: QVQLVQSGAEVKKPGASVKVSCKASGYTFTNFWIHWLRQAPGQGLEWMGMIDPSDSYTKYNQKFKARVTMTRDTSTSTTYMELSSLRSEDTAVYYCARSGVAFPYWGQGTLVTVSS VL: DIQMTQSPSSLSASVGDRVTITCKASQDVGRNVAWYQQKPGKSPKSLIYSASHRYSGVPSRFSGSGSGTDFTLTISSLQPEDFATYFCQQYNSYPYTFGQGTKVEIK", "pKd", 7.79),
]

Sample hu2H8v25 (antibody, V domains shown, humanized; also called hu2H8_HC1 + hu2H8_LC5) VH: QVQLVQSGAEVKKPGASVKVSCKASGYTFTNFWIHWVRQAPGQGLEWMGMIDPSDSYTKYNQKFKARVTMTRDTSTSTTYMELSSLRSEDTAVYYCARSGVAFPYWGQGTLVTVSS VL: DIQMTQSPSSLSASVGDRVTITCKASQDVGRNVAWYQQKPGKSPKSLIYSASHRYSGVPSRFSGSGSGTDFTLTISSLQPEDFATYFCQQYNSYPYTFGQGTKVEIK — what was its pKd?
7.66

Sample hu2H8v7 (antibody, V domains shown, humanized; also called hu2H8_HC1 + hu2H8_LC2) VH: QVQLVQSGAEVKKPGASVKVSCKASGYTFTNFWIHWVRQAPGQGLEWMGMIDPSDSYTKYNQKFKARVTMTRDTSTSTTYMELSSLRSEDTAVYYCARSGVAFPYWGQGTLVTVSS VL: DIQMTQSPSSLSASVGDRVTITCKASQDVGRNVAWYQQKPGKSPKLLIYSASHRYSGVPSRFSGSGSGTDFTLTISSLQPEDFATYYCQQYNSYPYTFGQGTKVEIK — what was its pKd?
6.82

The reported numbers originate from patent US20210070881A1.
